// reported Fresh Weight per item
# Test system: Heterozygous GAT-HRA corn
# experiment: Preemergence herbicide application in greenhouse: fresh shoot weight and visual injury
# Assay type: in vivo
# assay setup: preemergence, 200 g/ha; fresh shoots weighed 4 weeks after treatment; mean of four replications; untreated 47.0 g
// units = g; emit number, no label

COCc1cnc(C2=NC(C)(C(C)C)C(=O)N2)c(C(=O)O)c1 (stereo not shown); 47.5
COC(=O)c1c(Cl)nn(C)c1S(=O)(=O)NC(=O)Nc1nc(OC)cc(OC)n1; 40.1
COc1nc(C)nc(NC(=O)NS(=O)(=O)c2ccccc2OCCCl)n1; 47.7
COc1nn(C(=O)NS(=O)(=O)c2ccccc2OC(F)(F)F)c(=O)n1C; 48.8
COC(=O)c1ccccc1S(=O)(=O)NC(=O)Nc1nc(OC(F)F)cc(OC(F)F)n1; 37.9
COc1cc(OC)nc(NC(=O)NS(=O)(=O)c2cc(NC=O)ccc2C(=O)N(C)C)n1; 39.1
COC(=O)c1cccc(C)c1S(=O)(=O)NC(=O)Nc1nc(OCC(F)(F)F)nc(N(C)C)n1; 53.5
COc1cc(OC)nc(NC(=O)NS(=O)(=O)N(C)S(C)(=O)=O)n1; 47.7

Q: Entry "COC(=O)c1ccccc1S(=O)(=O)NC(=O)N(C)c1nc(C)nc(OC)n1" needs its Fresh Weight filled in; supply it.
Ans: 46.8

Q: Provide only the value of recorded Fresh Weight for "CCOc1ccccc1OS(=O)(=O)NC(=O)Nc1nc(OC)cc(OC)n1"
Ans: 40.0

---

// reported pest or weed control at 200 g/ha for each item listed
# Tested on: parent elite stiff stalk inbred corn
# experiment: Preemergence herbicide application in greenhouse: fresh shoot weight and visual injury
# Assay type: in vivo
# assay setup: Zea mays, pre-emergence, 672 h, read-out: % Visual Injury
Use % as the unit, but write only the number.

COC(=O)c1ccccc1S(=O)(=O)NC(=O)Nc1nc(OC(F)F)cc(OC(F)F)n1; 68
CC(C)C1(C)N=C(c2nc3ccccc3cc2C(=O)O)NC1=O (stereo not shown); 99
CCOc1nc(NC)nc(NC(=O)NS(=O)(=O)c2ccccc2C(=O)OC)n1; 100
COC(=O)c1ccccc1S(=O)(=O)NC(=O)Nc1nc(C)cc(C)n1; 100
COC(=O)c1c(Cl)nn(C)c1S(=O)(=O)NC(=O)Nc1nc(OC)cc(OC)n1; 30

Q: Name the recorded pest or weed control at 200 g/ha of the compound listed here: "CCOC(=O)c1ccccc1S(=O)(=O)NC(=O)Nc1nc(Cl)cc(OC)n1"
Ans: 100

Q: # return recorded pest or weed control at 200 g/ha for entry "CO/N=C(/C)c1cccc(Oc2nc(OC)cc(OC)n2)c1C(=O)OC"
Ans: 83

---

We begin with a simple list: items and their reported pest or weed control at 200 g/ha.
# Tested on: Heterozygous GAT-HRA corn
# experiment: Preemergence herbicide application in greenhouse: fresh shoot weight and visual injury
# Format: in vivo
# assay setup: Zea mays, pre-emergence, 672 h; preemergence, 200 g/ha; 0% no injury, 100% plant death; mean of four replications; read-out: % Visual Injury
Express it in %; write the number only.

Would you please look over these solved cases?
COC(=O)c1ccccc1S(=O)(=O)NC(=O)Nc1nc(C)nc(OC)n1; 0
Cc1ccn2nc(S(=O)(=O)Nc3c(F)cccc3F)nc2n1; 13
COc1nc(C)nc(NC(=O)NS(=O)(=O)c2ccccc2Cl)n1; 33

Q: Please indicate recorded pest or weed control at 200 g/ha of "CCS(=O)(=O)c1nc2ccccn2c1S(=O)(=O)NC(=O)Nc1nc(OC)cc(OC)n1" measured with Heterozygous GAT-HRA corn.
Ans: 18

Q: Fill in: pest or weed control at 200 g/ha on Heterozygous GAT-HRA corn, entry "COc1cc(OC)nc(NC(=O)NS(=O)(=O)c2c(-c3nnn(C)n3)cnn2C)n1"
Ans: 40
